system: MS2 coat protein; experiment: apparent KD of MS2 coat protein; designed switch direction (-1 OFF switch, 1 ON switch): -1; higher = weaker reporter binding; settings: input ligand: FMN 200 uM
ATTRIBUTE_MEASURED: apparent KD of MS2 coat protein

{"columns": ["SEQ", "TEST_SYSTEM", "ENDPOINT_RESULT"],
 "data": [
  ["GCUUGUGGGCAAGGAUAUCCUACGUUGUUCUGGUUCGUGUCUGUCACAUGAGGAUCACCCAUGUGGGAGAAGGUGCAUUUGGGU [Design 59] (Eterna round: R96, puzzle: Exclusion NG 2)", "MS2 coat protein", "17.9 nM"],
  ["CAGUACUGAGGAUAUACAUGAGGAUCACCCAUGUGAGAAAUACUAAUGAGGUCGAUUAGUAGAAGGCAGUACUG [Mat - Exclusion 3 - Eli Mod - D32] (Eterna round: R97, puzzle: Exclusion 3)", "MS2 coat protein", "255 nM"],
  ["UUAUAGUUAGAGGAUAUAUUAAGGUAUGCUUUGAUAGAAGGCUAGACAUGAGGAUCACCCAUGUAUAUUGGGAU [JR_Ex6_Sub075] (Eterna round: R97, puzzle: Exclusion 6)", "MS2 coat protein", "425 nM"],
  ["AAAUCGGUAGAGGAUAUUGUACAGGAAACGGUGCGAGAAGGUUGCACAUGAGGAUCACCCAUGUUUAAUUGCGA [EX6 #49] (Eterna round: R97, puzzle: Exclusion 6)", "MS2 coat protein", "43.1 nM"],
  ["CUAGGGCACAUUUAAACGCCCUAACAUGAGGAUCACCCAUGUCAGGAUAUGUAGGCAAAGACCCUACAGAAGGGACAUGUCCUA [Recebe] (Eterna round: R96, puzzle: Exclusion NG 3)", "MS2 coat protein", "303 nM"],
  ["GUAAACGCAGAGGAUAUUUCAGAUCAAAGCUGCAAAGAAGGCUGCACAUGAGGAUCACCCAUGUGGUCUUCAAG [Mat - Exclusion 6 - JL Mod - D10] (Eterna round: R97, puzzle: Exclusion 6)", "MS2 coat protein", "297 nM"],
  ["CUCUUGUGAGGAUAUCUCCCAGCGAUUAAUUGGGCAGUCUGAGAGAAGGUACAUGAGGAUCACCCAUGUGAUAG [Eternabot (L1) Solution 73] (Eterna round: R97, puzzle: Exclusion 4)", "MS2 coat protein", "69.3 nM"]
]}

* * *

tested on: K4 kissing-loop RNA reporter; assay: apparent KD of K4 kissing-loop reporter; higher = weaker reporter binding; details: Eterna round: R107; input ligand: tryptophan 2.4 mM;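 also: bound reporter read as fluorescence of individual clusters on recovered sequencing chips by microscopy, with normalized cluster intensities fitted with a binding model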
Recorded apparent KD of K4 kissing-loop reporter for the following sequences

{"columns": ["SEQ", "UNIT_ABBREVIATION", "apparent KD of K4 kissing-loop reporter"],
 "data": [
  ["GGCUCCUACGGAGGAUAUAGUAGCCCAGAGUGAUGUUCUAGGGUGUUUUCCGAUUUAGUCAUUGUUCUAGAAGGCCGUAGGAGCC", "nM", 210],
  ["GAUUUAGAGGCGGCCGCCACUAGUGAUGUUAGUGAUGUUUGAUACUGUAUAUAUCGGCGUGUAGAUAGGACCGGGCCUGAUGGAG [drrdmullin]", "nM", 196],
  ["AGAGUACGAAAGUACUCCUCUACACACUGACGAGGACCGGUACGGCCGCCACUCGAGUUGAGUGAUGUUCGACAGUGUGUAGAGA [Omei KL Tryp A SS C v1]", "nM", 783],
  ["UUUCGUUGAAGUGAUACCAGACUUGAAAGUGAUGUUUUCCAAUAAUUUAAAUUUUUAGCUGUCCCUUGGCAGCACAGUUUAUUUA [JR_Nu_ExcTheophyB_Sub025]", "nM", 181],
  ["UCGGUAUAGUGAUGUUAUAUAGAGAGUGAUACCAGUUUAGAGAGAAACCCUUGGCAGCAUAGAAGAGUAUCAUUGGAGGAGGAGG [#20 K4 Theophylline A Exclusion]", "nM", 301],
  ["AGAACUGUCUGGGAUACCAGCCGAGGAGUGAUGUUCCGGCUCGACGAAACGUCGAGCCACGGCCCUUGGCAGCUCAGACAGUUCA [#21 K4 Theophylline B Same State]", "nM", 759],
  ["AUUGAACAAGUGAUGUUUGUAUUUUCCGAAGGAGCGUCUAAUAAGACAGGUAGGUCGCGGUUUCUCUUAAUAAUCAGGUCUUUAA [JR_Nu_ExcArginiA_Sub021]", "nM", 238],
  ["CGUGCCCGGCCGGAUACCAGUGACCCGCUGGGAACCGCGGGCCCAGAGUGAUGUUCGGGACACCCUUGGCAGCCGCCUGGGCGGC [#2 Same State - Theophylline B Attempt #13 (HarryS)]", "nM", 655]
]}
